All values here come from patent US11180510B2.

# pIC50 per record follows
Target: Brd3(BD1) (Homo sapiens, UniProt Q15059)
Sequence (Q15059 34-140 limits assumed): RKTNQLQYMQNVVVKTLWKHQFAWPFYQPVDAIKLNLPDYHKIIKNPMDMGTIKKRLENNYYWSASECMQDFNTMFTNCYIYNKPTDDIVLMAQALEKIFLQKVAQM
Experiment: HTRF BET selectivity profile, Brd3(BD1)
Conceptually, pIC50 converts a concentration in mol/L into minus its log10.

> print(dat)
                                   compound  attribute.measured  reported.value
1  CCn1cnc2c1c(=O)[nH]c(=O)n2Cc1ccc(CNS(=O)(=O)c2ccc(-c3ccccc3)cc2)cc1 [Compound 29b]               pIC50            6.05
2  CCn1cnc2c1c(=O)[nH]c(=O)n2Cc1ccc(CNS(=O)(=O)c2ccc(C(=O)N3CCOCC3)cc2)cc1 [Compound 44b]               pIC50            6.64
3  Cc1noc(C)c1CCNC(=O)c1ccc(CNS(=O)(=O)c2ccc3c(c2)CCCC(=O)N3)cc1 [Compound 16a]               pIC50            5.06
4  CCn1c(CSc2nc3nc(C)cc(C)n3n2)nc2c1c(=O)[nH]c(=O)n2Cc1ccc(CNS(=O)(=O)c2ccc3c(c2)CCCC(=O)N3)cc1 [Compound 32b]               pIC50            5.02
5  CCCCc1c(C)nc2nc(SCc3nc4c(c(=O)[nH]c(=O)n4Cc4ccc(CNS(=O)(=O)c5ccc6c(c5)CCCC(=O)N6)cc4)n3CC)nn2c1C [Compound 32c]               pIC50            5.35
6  CCn1cnc2c1c(=O)[nH]c(=O)n2Cc1ccc(CNS(=O)(=O)c2ccc(-c3cc(C)n[nH]3)s2)cc1 [Compound 25a]               pIC50            6.29

# evaluate next
# input Need pIC50 of CCn1cnc2c1c(=O)[nH]c(=O)n2Cc1ccc(CNS(=O)(=O)c2ccc(Oc3ccccc3)cc2)cc1 [Compound 30c] , thanks.
# output 6.20

----------
Biological target: Brd2(BD2) (Homo sapiens, UniProt P25440)
Construct: GST tagged bromodomain proteins were purchased from BPS Bioscience; purchased BPS Bioscience
Sequence (P25440 344-453 limits assumed): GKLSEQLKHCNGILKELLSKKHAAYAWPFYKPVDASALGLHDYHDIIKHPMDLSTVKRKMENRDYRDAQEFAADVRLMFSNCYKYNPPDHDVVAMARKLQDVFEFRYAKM
Experiment: HTRF BET selectivity profile, Brd2(BD2)
Format: binding
Conditions: read-out: Brd2(BD2) IC50
Item-by-item account of IC50
Output spec: scalar in µM, unitless text.

> print(dat)
                                   compound  reported.value
1  CCn1cnc2c1c(=O)[nH]c(=O)n2Cc1ccc(CNS(=O)(=O)c2ccc(OCc3ccccc3)cc2)cc1 [Compound 31a]            12.8
2  CCn1cnc2c1c(=O)[nH]c(=O)n2Cc1ccc(CNS(=O)(=O)c2ccn(-c3ccccc3)n2)cc1 [Compound 24b]            6.05
3  CCn1cnc2c1c(=O)[nH]c(=O)n2Cc1ccc(CNS(=O)(=O)c2ccc3c(c2)CCCC(=O)N3)cc1 [Compound 27c]            1.61
4  CCn1cnc2c1c(=O)[nH]c(=O)n2Cc1ccc(CNS(=O)(=O)c2ccc(OC3CCOCC3)c(F)c2)cc1 [Compound 43c]            1.22

# input Query IC50 on Brd2(BD2) (Homo sapiens, UniProt P25440) for CCn1cnc2c1c(=O)[nH]c(=O)n2Cc1ccc(CNS(=O)(=O)c2ccc(-c3ccccc3)cc2)cc1 [Compound 29b]
# output 16

----------
Target: Brd2(BD2) (Homo sapiens)
Construct: GST tagged bromodomain proteins were purchased from BPS Bioscience; purchased BPS Bioscience
Experiment: HTRF BET selectivity profile, Brd2(BD2)
Type: binding
Details: read-out: Brd2(BD2) IC50
IC50 values, listed per item
The response must be a number in µM with no trailing unit.

# input So what's the measured IC50 for this one? CCn1cnc2c1c(=O)[nH]c(=O)n2Cc1ccc(CNS(=O)(=O)c2ccc(C(=O)N3CCOCC3)cc2)cc1 [Compound 44b]
# output 1.96

# input Could you tell me which IC50 is on file for O=C1CCCc2cc(S(=O)(=O)C3CCC(C(=O)NCCc4ccccn4)CC3)ccc2N1 (stereo not shown) [Compound 7a] ?
# output 7.11

# input Would you kindly share the measured IC50 for CCn1cnc2c1c(=O)[nH]c(=O)n2Cc1ccc(CNS(=O)(=O)c2ccc3c(c2)CCC(=O)N3)cc1 [Compound 27b] ?
# output 5.58

# input What value of measured IC50 is listed for Cc1noc(C)c1CCNC(=O)C1CCC(CNS(=O)(=O)c2ccc3c(c2)CCCC(=O)N3)CC1 (stereo not shown) [Compound 9a] ?
# output 33.9

# input Recorded IC50 of CCn1cnc2c1c(=O)[nH]c(=O)n2Cc1ccc(CNS(=O)(=O)c2ccc(-c3cc(C)n[nH]3)s2)cc1 [Compound 25a] , please.
# output 3.2

# input For the compound shown here, CCn1cnc2c1c(=O)[nH]c(=O)n2Cc1ccc(CNS(=O)(=O)c2ccc3c(c2)CCCC(=O)N3)c2ccccc12 [Compound 31c] , give the reported IC50.
# output 3.08

# input IC50 for CCn1cnc2c1c(=O)[nH]c(=O)n2Cc1ccc(CNS(=O)(=O)c2ccc3scnc3c2)cc1 [Compound 25c] ?
# output 23.5

----------
Biological target: Brd2(BD1) (Homo sapiens)
Construct: GST tagged bromodomain proteins were purchased from BPS Bioscience; purchased BPS Bioscience
Sequence (P25440 74-180 limits assumed): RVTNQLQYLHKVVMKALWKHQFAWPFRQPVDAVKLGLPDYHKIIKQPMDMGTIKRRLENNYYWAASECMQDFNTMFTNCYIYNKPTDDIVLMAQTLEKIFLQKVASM
Assay: HTRF BET selectivity profile, Brd2(BD1)
Format: binding
Conditions: read-out: Brd2(BD1) IC50
Procedure: HTRF assays were performed in white 384 Well Small Volume™ HiBase Polystyrene Microplates (Greiner) with a total working volume of 20 μL. […] Percentage of inhibition was calculated using the following equation: % inhibition=[(compound signal)−(min signal)]/[(max signal)−(min signal)]*100, where ‘max signal’ is the signal ratio with the compound vehicle alone (DMSO) and ‘min signal’ the signal ratio without peptide. […]
The entries below are paired with their reported log10 of IC50.
Hi team, quick reminder: these entries are log10 of IC50 (nM).

# input Please look up its log10 of IC50: CCn1cnc2c1c(=O)[nH]c(=O)n2Cc1ccc(CNS(=O)(=O)c2ccc(-c3cc(C)n[nH]3)s2)cc1 [Compound 25a]
# output 3.32

# input // lookup log10 of IC50 for CCn1cnc2c1c(=O)[nH]c(=O)n2Cc1ccc(CNS(=O)(=O)c2ccc(OC3CCCCC3)cc2)cc1 [Compound 43a]
# output 2.56

----------
Target: Brd3(BD2) (Homo sapiens, UniProt Q15059)
Construct: GST tagged bromodomain proteins were purchased from BPS Bioscience; purchased BPS Bioscience
Sequence (Q15059 306-415 limits assumed): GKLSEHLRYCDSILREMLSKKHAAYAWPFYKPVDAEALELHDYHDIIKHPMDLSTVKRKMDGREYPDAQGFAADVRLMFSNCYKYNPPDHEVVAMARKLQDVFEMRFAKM
Experiment: HTRF BET selectivity profile, Brd3(BD2)
Format: binding
IC50 reference
Please format your answer as a value with the unit trailing.

These solved cases illustrate the format of a correct answer.
> print(dat)
                                   compound                                 tested.on  reported.value
1  CCn1cnc2c1c(=O)[nH]c(=O)n2Cc1ccc(CNS(=O)(=O)c2ccn(-c3ccccc3)n2)cc1 [Compound 24b]  Brd3(BD2) (Homo sapiens, UniProt Q15059)           12 µM
2  CCn1cnc2c1c(=O)[nH]c(=O)n2Cc1ccc(CNS(=O)(=O)c2ccc(OC3CCOCC3)c(F)c2)cc1 [Compound 43c]  Brd3(BD2) (Homo sapiens, UniProt Q15059)         2.17 µM
3  O=C1CCCc2cc(S(=O)(=O)C3CCC(C(=O)NCCc4ccccn4)CC3)ccc2N1 (stereo not shown)  Brd3(BD2) (Homo sapiens, UniProt Q15059)         47.2 µM
4  CCn1cnc2c1c(=O)[nH]c(=O)n2Cc1ccc(CNS(=O)(=O)c2cc3ccccc3s2)cc1 [Compound 25b]  Brd3(BD2) (Homo sapiens, UniProt Q15059)         12.4 µM
5  CCn1cnc2c1c(=O)[nH]c(=O)n2Cc1ccc(CNS(=O)(=O)c2ccc(C(=O)N3CCOCC3)cc2)cc1 [Compound 44b]  Brd3(BD2) (Homo sapiens, UniProt Q15059)         3.32 µM

# input I have this compound here, CCCCc1c(C)nc2nc(SCc3nc4c(c(=O)[nH]c(=O)n4Cc4ccc(CNS(=O)(=O)c5ccc6c(c5)CCCC(=O)N6)cc4)n3CC)nn2c1C [Compound 32c] , and I need its recorded IC50.
# output 4.16 µM

# input // lookup IC50 for CCn1cnc2c1c(=O)[nH]c(=O)n2Cc1ccc(CNS(=O)(=O)c2ccc3c(c2)CCCC(=O)N3)c2ccccc12 [Compound 31c]
# output 2.13 µM

----------
Reported Ratio 3-1 vs 3-2 values for the following compounds.
Molecular target: Brd3(BD1) (Homo sapiens)
Assay: HTRF BET selectivity profile, Brd3(BD1)
Format: binding
Set-up: GST tagged bromodomain proteins were purchased from BPS Bioscience; purchased BPS Bioscience
Details: selectivity Brd3(BD1) vs Brd3(BD2), HTRF IC50
The response must contain the number and no unit.

> print(dat)
                                   compound  attribute.measured  reported.value
1  CCn1cnc2c1c(=O)[nH]c(=O)n2Cc1ccc(CNS(=O)(=O)c2ccc3c(c2)CCC(=O)N3)cc1 [Compound 27b]    Ratio 3-1 vs 3-2               3

Consider the record given below.
# input Missing value: Ratio 3-1 vs 3-2, Brd3(BD1) (Homo sapiens), entry CCn1cnc2c1c(=O)[nH]c(=O)n2Cc1ccc(CNS(=O)(=O)c2ccc(-c3ccccc3)cc2)cc1 [Compound 29b] . Fill in?
# output 15
